Target: UniProt:P08908
Sequence (P08908 whole entry): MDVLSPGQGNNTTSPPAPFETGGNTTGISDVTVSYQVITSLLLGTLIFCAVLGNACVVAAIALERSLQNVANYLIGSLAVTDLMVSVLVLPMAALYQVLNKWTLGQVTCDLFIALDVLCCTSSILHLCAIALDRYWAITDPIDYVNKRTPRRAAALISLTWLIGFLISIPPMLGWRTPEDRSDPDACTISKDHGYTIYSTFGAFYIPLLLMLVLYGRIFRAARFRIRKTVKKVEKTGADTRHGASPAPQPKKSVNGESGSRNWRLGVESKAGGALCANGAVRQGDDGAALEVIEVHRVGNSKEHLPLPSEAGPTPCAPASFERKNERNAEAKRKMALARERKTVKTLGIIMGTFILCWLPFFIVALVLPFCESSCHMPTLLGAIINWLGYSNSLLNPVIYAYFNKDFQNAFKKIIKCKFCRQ
Experiment: Cellular functional assay, serotoninergic 5-HT1A receptor (agonism/antagonism)
Assay type: cell-based
Conditions: CHO; read-out: 5-HT1A-antag. [%]
Endpoint: inhibition at 1 µM (%)

> print(dat)
                                smiles.input   tested.target  experimental.result
 1  O=S(=O)(NCCCCN1CCN(c2nsc3ccccc23)CC1)c1csc2ccccc12  UniProt:P08908                   50
 2  O=S(=O)(NCCCCN1CCC(c2noc3cc(F)ccc23)CC1)c1ccc2cc(Cl)ccc2c1  UniProt:P08908                   38
 3  O=S(=O)(NCCCCN1CCN(c2cccc3[nH]ccc23)CC1)c1cnc2ccccn12  UniProt:P08908                   86
 4  Cc1c(S(=O)(=O)NCCCN2CCC(c3noc4cc(F)ccc34)CC2)sc2ccc(F)cc12  UniProt:P08908                   35
 5  O=c1[nH]c2ccc(S(=O)(=O)NCCCCN3CCN(c4noc5ccccc45)CC3)cc2o1  UniProt:P08908                   91
 6  O=S(=O)(NCCCCN1CCN(c2cccc3[nH]ccc23)CC1)c1cccc(Cl)c1  UniProt:P08908                   92
 7  O=S(=O)(NCCCCN1CCN(c2cccc3[nH]ccc23)CC1)c1cc2ccccc2s1  UniProt:P08908                   24
 8  O=S(=O)(NCCCCN1CCN(c2cccc3[nH]ccc23)CC1)c1ccc2ccccc2c1  UniProt:P08908                   22
 9  O=S(=O)(NCCCCN1CCN(c2cccc3[nH]ccc23)CC1)c1ccc(F)cc1  UniProt:P08908                   94
10  Cc1c(S(=O)(=O)NCCCCN2CCN(c3noc4ccccc34)CC2)sc2ccc(F)cc12  UniProt:P08908                   22
11  O=S(=O)(NCCCCN1CCN(c2cccc3[nH]ccc23)CC1)c1ccc2cc(Cl)ccc2c1  UniProt:P08908                   70
12  O=S(=O)(NCCCCN1CCN(c2cccc3[nH]ccc23)CC1)c1ccc(F)c(F)c1  UniProt:P08908                   26
13  O=c1[nH]c2ccc(S(=O)(=O)NCCCN3CCN(c4nsc5ccccc45)CC3)cc2o1  UniProt:P08908                   81

* * *

Molecular target: serotoninergic 5-HT7 receptor (Homo sapiens, UniProt P34969)
Sequence (P34969 whole entry): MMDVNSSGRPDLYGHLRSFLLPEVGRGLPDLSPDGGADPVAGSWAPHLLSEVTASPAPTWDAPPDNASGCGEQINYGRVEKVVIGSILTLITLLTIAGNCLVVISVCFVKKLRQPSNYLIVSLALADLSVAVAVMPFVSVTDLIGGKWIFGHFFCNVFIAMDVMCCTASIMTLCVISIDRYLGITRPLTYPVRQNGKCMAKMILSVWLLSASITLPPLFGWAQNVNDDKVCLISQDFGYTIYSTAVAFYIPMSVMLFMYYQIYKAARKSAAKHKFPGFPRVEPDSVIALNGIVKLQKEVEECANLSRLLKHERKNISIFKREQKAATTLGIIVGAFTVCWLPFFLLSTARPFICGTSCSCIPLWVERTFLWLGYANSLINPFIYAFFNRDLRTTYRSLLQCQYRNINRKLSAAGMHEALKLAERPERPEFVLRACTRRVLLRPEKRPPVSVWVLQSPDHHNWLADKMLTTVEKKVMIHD
Experiment: Binding assay 5-HT7 (h), [3H]LSD, CHO cells
Set-up: expressed in transfected cells; host or cells: CHO cells
Settings: read-out: 5-HT7
Each entry below lists one item and its recorded inhibition at 1 µM value.
Endpoint: inhibition at 1 µM (%)

> print(dat)
                                    compound  experimental.result
 1  O=S(=O)(NCCCCN1CCN(c2cccc3[nH]ccc23)CC1)c1cccc(C(F)(F)F)c1 [Compound 361]                   86
 2  O=S(=O)(NCCCCN1CCN(c2nsc3ccccc23)CC1)c1cccs1 [Compound 238]                   88
 3  O=S(=O)(NCCCCN1CCN(c2cccc3[nH]ccc23)CC1)c1cc2ccc(Cl)cc2s1 [Compound 363]                   98
 4  O=S(=O)(NCCCCN1CCC(c2noc3cc(F)ccc23)CC1)c1ccc(OC(F)(F)F)cc1 [Compound 304]                   93
 5  O=S(=O)(NCCCCN1CCC(c2noc3cc(F)ccc23)CC1)c1ccc(Br)cc1 [Compound 298]                  100
 6  COc1cccc(S(=O)(=O)NCCCCN2CCN(c3cccc4c3OCCO4)CC2)c1 [Compound 394]                   98
 7  O=S(=O)(NCCN1CC=C(c2c[nH]c3ccc(F)cc23)CC1)c1cccc(F)c1 [Compound 439]                   78
 8  Cc1[nH]c2ccc(Cl)cc2c1C1=CCN(CCNS(=O)(=O)c2cccc(F)c2)CC1 [Compound 450]                   50
 9  O=S(=O)(NCCCCN1CCN(c2cccc3[nH]ccc23)CC1)c1ccc(F)cc1 [Compound 359]                   95
10  O=S(=O)(NCCCCN1CCN(c2cccc3c2OCCO3)CC1)c1ccc2cn[nH]c2c1 [Compound 402]                  100
11  O=S(=O)(NCCCCN1CCN(c2noc3ccccc23)CC1)c1ccc(-c2ccccc2)cc1 [Compound 283]                   99
12  CC(C)(C)c1ccc(S(=O)(=O)NCCCN2CCN(c3nsc4ccccc34)CC2)cc1 [Compound 256]                  100
13  Cc1c(S(=O)(=O)NCCCN2CCN(c3nsc4ccccc34)CC2)sc2ccc(F)cc12 [Compound 66]                  101
14  O=S(=O)(NCCCN1CCN(c2nsc3ccccc23)CC1)c1ccc2c(c1)OCO2 [Compound 269]                  101
15  O=c1[nH]c2cccc(N3CCN(CCCNS(=O)(=O)c4cccc5ccccc45)CC3)c2[nH]1 [Compound 423]                   88
16  O=S(=O)(NCCCN1CCN(c2nsc3ccccc23)CC1)c1cccs1 [Compound 261]                  100
17  N#Cc1ccc(S(=O)(=O)NCCCCN2CCC(c3noc4cc(F)ccc34)CC2)cc1 [Compound 305]                   85

src = patent US8822517B2
